// data source = patent US20240376151A1

biological target: WWP1 (Homo sapiens); construct: GST-TEV (N, cleaved yes); made in house; host or cells: Escherichia coli BL21 (DE3); experiment: Naive Library Presenter Screening (phage, NGS), WWP1 (construct not given); type: binding; conditions: WWP1 target concentration 30 nM
Numbered stars: 1 amine (or outer) side, 2 acyl side, 3 side chain; on linkers, the order of the positions; unused ones are H or OH. Bridge positions count the residues as written; N and C are the ends. Ends that are not written are not given here. Phenylene(1,4-NHCOCH2)2 = O=C(C[*:1])Nc1ccc(NC(=O)C[*:2])cc1
outcome measure: interaction data at Target Concentration 30
Give a plain numeric answer without units written out.

1) DPAMIACSHAAQMCHWS (linker 7-14 via Phenylene(1,4-NHCOCH2)2) | 8

Which interaction data at Target Concentration 30 value is on record for DPAATLCNQAANVCALL (linker 7-14 via Phenylene(1,4-NHCOCH2)2) ?
0

What does the data say about its interaction data at Target Concentration 30? Entry: DPAQLSCTVAAHVCHST (linker 7-14 via Phenylene(1,4-NHCOCH2)2; not fully specified (C-terminus))
25

Need interaction data at Target Concentration 30, item DPAMRRCHQAAWVCEVL (linker 7-14 via Phenylene(1,4-NHCOCH2)2)
1

Which interaction data at Target Concentration 30 is reported for this sequence? DPAHTACNQAARVCHTL (linker 7-14 via Phenylene(1,4-NHCOCH2)2)
4

Returns the measured interaction data at Target Concentration 30 for the input sequence. Input: DPAHQTCAFAAVLCHQN (linker 7-14 via Phenylene(1,4-NHCOCH2)2)
0

What value of measured interaction data at Target Concentration 30 is listed for DPAFHYCTMAANMCHQD (linker 7-14 via Phenylene(1,4-NHCOCH2)2) ?
0

* * *

Target: RNF31 UBA domain (Homo sapiens)
Construct: RNF31 UBA domain protein (residues 480-639) with N-terminal Thioredoxin-TEV-6×his-yBBr-3C tags; Thioredoxin (N, cleaved yes); made in house; host or cells: E. coli BL21 (DE3) pLysS
Sequence (Q96EP0 480-639): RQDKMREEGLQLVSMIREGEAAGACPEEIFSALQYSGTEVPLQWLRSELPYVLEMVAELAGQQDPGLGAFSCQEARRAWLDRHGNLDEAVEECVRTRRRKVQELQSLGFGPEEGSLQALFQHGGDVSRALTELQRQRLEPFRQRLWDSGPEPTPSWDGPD
Test: Phage Library Screening with NGS, RNF31 UBA domain
Format: binding
Details: RNF31 UBA domain cluster C46; target concentration 100
Phage library screen NGS readout, Target Concentration 100 overview
Number only, no unit.

Worked set:
1) DPAEQRCLSAAVYCAWH | 16
2) DPAAQACLSAAVFCAWY | 45
3) DPAASQCFSAAVYCAWI | 8
4) DPAHVRCTSAALWCNIF | 3
5) DPAQRQCLSAAVFCATL | 137
6) DPAALACLSAAVYCEMY | 132
7) DPAQMFCYSAAVYCAAF | 4
8) DPAVQSCLSAAVYCAFR | 68

// lookup Phage library screen NGS readout, Target Concentration 100 for DPAQLNCLSAAMYCALY
49

So what's the measured Phage library screen NGS readout, Target Concentration 100 for this one? DPALTNCFSAAVYCAMF
131

Fill blank: measured Phage library screen NGS readout, Target Concentration 100 of the sequence DPALQSCLSAAVYCTVS is ____.
6

Need Phage library screen NGS readout, Target Concentration 100 of DPASASCLSAAIYCSMF , thanks.
122

Entry under review: DPAQMSCFSAAVYCRLF . Reported Phage library screen NGS readout, Target Concentration 100?
11

Which Phage library screen NGS readout, Target Concentration 100 value is on record for DPAQRQCLSAAVWCATF ?
121

Returns the measured Phage library screen NGS readout, Target Concentration 100 for the input sequence. Input: DPALRTCLSAAVFCAVA
10
